Below, each of the compounds is paired with its reported time to zero foam value.
Test Summary: Foam test based upon ASTM D 1173-53
Assay type: physicochemical
Condition Summary: 0.1 wt % solution
Quantity: time to zero foam (s)

| Compound | Number |
| --- | --- |
| CC(C)CNC(=O)CC(O)(CC(=O)NCC(C)C)C(=O)NCC(C)C [Example 3, N,N′,N″-tri-iso-butylcitramide] | 10 |
| CCCNC(=O)CC(O)(CC(=O)NCCC)C(=O)NCCC [Example 1, N,N′,N″-tri-n-propylcitramide] | 10 |
| CCCCNC(=O)CC(O)(CC(=O)NCCCC)C(=O)NCCCC [Example 2, N,N′,N″-tri-n-butylcitramide] | 9 |
| CC(C)CCNC(=O)CC(O)(CC(=O)NCCC(C)C)C(=O)NCCC(C)C [Example 4, N,N′,N″-tri-iso-amylcitramide] | 2 |

* * *

Test Summary: Solubility limit in water
Assay type: physicochemical
Condition Summary: in distilled water
Experimental: The solubility limits of Examples 6 and 7 were determined by intersection of the linear portion of a surface tension/In (concentration) curve with the limiting surface tension as is described in many textbooks. Since Example 8 contained insoluble material at 0.005 wt %, the solubility limit is reported as <0.005 wt %. Also, the solubility limit of ˜10 wt % reported for Example 1 is the lowest concentration at which a significant amount of insoluble material was seen. […]

| Molecule | Bound Operator | solubility limit [Weight %] |
| --- | --- | --- |
| CCCCNC(=O)CC(O)(CC(=O)NCCCC)C(=O)NCCCC [Example 2, N,N′,N″-tri-n-butylcitramide] | = | 0.4 |
| CC(C)CCNC(=O)CC(O)(CC(=O)NCCC(C)C)C(=O)NCCC(C)C [Example 4, N,N′,N″-tri-iso-amylcitramide] | < | 0.005 |
| CC(C)CNC(=O)CC(O)(CC(=O)NCC(C)C)C(=O)NCC(C)C [Example 3, N,N′,N″-tri-iso-butylcitramide] | = | 0.2 |
